This listing pairs compounds with measured pEC50.
- Measured Target: S1P1 receptor (Homo sapiens, UniProt P21453)
- Sequence (P21453 whole entry): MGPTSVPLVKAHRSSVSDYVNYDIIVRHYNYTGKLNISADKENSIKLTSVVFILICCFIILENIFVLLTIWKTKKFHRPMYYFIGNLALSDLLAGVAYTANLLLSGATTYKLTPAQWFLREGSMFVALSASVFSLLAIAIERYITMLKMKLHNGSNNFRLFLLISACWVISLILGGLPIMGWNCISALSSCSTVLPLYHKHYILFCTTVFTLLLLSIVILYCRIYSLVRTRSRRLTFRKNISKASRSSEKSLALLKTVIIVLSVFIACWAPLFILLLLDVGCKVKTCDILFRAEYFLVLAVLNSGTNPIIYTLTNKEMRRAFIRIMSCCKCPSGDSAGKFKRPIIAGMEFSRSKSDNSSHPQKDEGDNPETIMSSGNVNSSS
- Assay Remarks: S1P1 receptor agonistic activity (PathHunter cell strain, chemiluminescent signal detection)
- Reported Conditions: PathHunter cells, agonist mode, 37° C. 90-180 minutes
- Experimental: Test Method: […] Cell Processing i) Thaw the PathHunter cell strain according to the standard procedures. ii) Seed the cell in the 20 μL 384-microwell plate and incubate at 37° C. for an appropriate period. 2. […] Then, incubate at room temperature for 1 hour and generate the detection signal; ii) Use PerkinElmer Evision™ instrument to read the microwell plate to proceed with chemiluminescent signal detection. […]
pEC50: −log10 of the molar value.
Measured Endpoint: pEC50

> print(dat)
                                   compound  recorded.measurement
1  CN1CCc2nc(-c3nc(-c4cccc5c4CC4CC(=O)N(CCO)C54)no3)sc2C1 (centres unmarked)                < 7.00
2  CC(C)Oc1ccc(-c2nc(-c3cccc4c3CC3CC(=O)N(CCOS(=O)(=O)O)[C@H]43)no2)cc1C#N (some centres unmarked)                > 8.00
3  CC(C)Oc1ccc(-c2ncc(-c3cccc4c3CC3CC(=O)N(CCO)C43)o2)cc1C#N (centres unmarked)                > 8.00
4  COc1cc(-c2nc(-c3cccc4c3CC3CC(=O)N(CCO)C43)no2)cc(C2CCCC2)n1 (centres unmarked)          7.00 to 8.00
5  CC(C)Oc1ccc(-c2nc(-c3cccc4c3CC3CC(=O)N(CCCC(=O)O)C43)no2)cc1C#N (centres unmarked)                > 8.00
6  CC(C)Oc1ccc(-c2nc(-c3cccc4c3CC3CC(=O)N(CCCCC(=O)O)C43)no2)cc1C#N (centres unmarked)                > 8.00
7  CC(C)Oc1ccc(-c2nc(-c3cccc4c3CC3CC(=O)N(CCO)C43)ns2)cc1C#N (centres unmarked)                > 8.00
8  CC(C)Oc1cccc(-c2nc(-c3cccc4c3CC3CC(=O)N(CCO)C43)no2)c1 (centres unmarked)                < 7.00

* * *

This listing pairs molecules with measured clearance.
- Assay Remarks: Evaluation of compound pharmacokinetics in SD rats (intravenous injection and oral administration)
- Format: in vivo
- Reported Conditions: male, Sprague Dawley, rat, plasma, 2 mg/kg, 2 mpk, read-out: Clearance rate
Measured Endpoint: clearance

> print(dat)
                                   molecule  recorded.measurement
1  CC(C)Oc1ccc(-c2nc(-c3cccc4c3CC3CC(=O)N(CCO)C43)no2)cc1Cl (stereo not drawn)         7.5 mL/min/kg
2  CC(C)Oc1ccc(-c2nc(-c3cccc4c3CC3CC(=O)N(CC(O)CO)C43)no2)cc1C#N (stereo not drawn)        7.22 mL/min/kg
3  CC(C)Oc1ccc(-c2nc(-c3cccc4c3CC3CC(=O)N(CCO)C43)no2)cc1OC(F)F (stereo not drawn)        14.1 mL/min/kg
4  CC(C)Oc1ccc(-c2nc(-c3cccc4c3C[C@@H]3CC(=O)N([C@H](C)CO)C43)no2)cc1C#N (stereo partly drawn)        14.6 mL/min/kg
5  CC(C)Oc1ccc(-c2nc(-c3cccc4c3CC3CC(=O)N(CCO)C43)no2)cc1C(F)F (stereo not drawn)        8.86 mL/min/kg
6  CC(C)Oc1ccc(-c2nc(-c3cccc4c3C[C@@H]3OC(=O)N(CCO)[C@H]43)no2)cc1C#N (relative stereo)        6.59 mL/min/kg
